These measurements were taken from patent US20250243281A1.

# study_system: T1, hCLEC12B (human, UniProt Q2HXU8 1-276)
# T1 construct: Overexpressed on HEK293 cells
# T1 sequence: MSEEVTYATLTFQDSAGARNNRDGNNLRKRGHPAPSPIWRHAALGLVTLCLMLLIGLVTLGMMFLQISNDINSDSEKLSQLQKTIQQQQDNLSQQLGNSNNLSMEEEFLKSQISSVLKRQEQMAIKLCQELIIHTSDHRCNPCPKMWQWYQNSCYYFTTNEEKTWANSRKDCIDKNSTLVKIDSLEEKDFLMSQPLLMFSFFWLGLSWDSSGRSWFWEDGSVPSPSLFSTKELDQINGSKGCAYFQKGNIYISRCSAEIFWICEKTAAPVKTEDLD
# protocol_description: flow cytometry, HEK293 transfectants, 100 nM antibody;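 also: antibody applied at a saturating level and incubated with cells for 30 min at room temperature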
reported_endpoint: % of CD161 binding (%)
Number only, in %; omit the unit.

Ab16 (antibody, human IgG1, V domains shown, IgG purified from yeast culture) VH: QVQLVESGGGLVKPGGSLRLSCAASGFTFSDYYMSWIRQAPGKGLEWVSYISPSGATIAYADSVKGRFTISRDNSKNTLYLQMNSLRAEDTAVYYCARSLMATGTHLYFDLWGRGTLVTVSS VL: DIQLTQSPSSVSASVGDRVTITCRASQGISSWLAWYQQKPGKAPKLLIYAASGLQSGVPSRFSGSGSGTDFTLTISSLQPEDFATYYCQQSTSFPPYTFGGGTKVEIK | 0.088
Ab19 (antibody, human IgG1, V domains shown, IgG purified from yeast culture) VH: QVQLVESGGGLVKPGGSLRLSCAASGFTFSQYYMSWIRQAPGKGLEWVSYISPSGATIYYADSVKGRFTISRDNAKNSLYLQMNSLRAEDTAVYYCARSLMATGTHLYFDLWGRGTLVTVSS VL: DIQLTQSPSSVSASVGDRVTITCRASQGISSWLAWYQQKPGKAPKLLIYAASALQSGVPSRFSGSGSGTDFTLTISSLQPEDFATYYCQQVTSAPPYTFGGGTKVEIK | 0.26
Ab17 (antibody, human IgG1, V domains shown, IgG purified from yeast culture) VH: QVQLVESGGGLVKPGGSLRLSCAASGFTFSDYYMSWIRQAPGKGLEWVSYISPSGATIYYADSVKGRFTISRDNAKNSLYLQMNSLRAEDTAVYYCARSLMSTGTHLYFDLWGRGTLVTVSS VL: DIQLTQSPSSVSASVGDRVTITCRASQGISSWLAWYQQKPGKAPKLLIYAASSLQSGVPSRFSGSGSGTDFTLTISSLQPEDFATYYCQQVTSVPPYTFGGGTKVEIK | 0.038
Ab13 (antibody, human IgG1, V domains shown, IgG purified from yeast culture) VH: QVQLVESGGGLVKPGGSLRLSCAASGFTFANYYMSWIRQAPGKGLEWVSYISPSGATIAYADSVKGRFTISRDNAKNSLYLQMNSLRAEDTAVYYCARSLMATGTHLYFDLWGRGTLVTVSS VL: DIQLTQSPSSVSASVGDRVTITCRASSGISSWLAWYQQKPGKAPKLLIYAASELQSGVPSRFSGSGSGTDFTLTISSLQPEDFATYYCQQATSFPPYTFGGGTKVEIK | 0.175

Asked: Query (binder): Ab2 (antibody, human IgG1, V domains shown, IgG purified from yeast culture) VH: EVQLLESGGGLVQPGGSLRLSCAASGFAFSTYAMSWVRQAPGKGLEWVSAISGVGGTTYYADSVKGRFTISRDNSKNTLYLQMNSLRAEDTAVYYCAKPLDSSLWADFDLWGRGTLVTVSS VL: DIQLTQSPSSVSASVGDRVTITCRASQGISSWLAWYQQKPGKAPKLLIYYASSLQDGVPSRFSGSGSGTDFTLTISSLQPEDFATYYCQQASVLPITFGGGTKVEIK ; field requested: % of CD161 binding
Given back: 0.057
